Measured pIC50, listed per entry for reference.
# System: HFF cells
# assayMethodText: Cytotoxicity in stationary HFF cells, microscopic inspection
# Assay type: cell-based, human
# conditionNotes: stationary HFF cells, visual; read-out: Cytotoxicity IC50 HFF (visual)
pIC50: −log10 of the molar value.

{"compound": "COC(=O)[C@H](C)NP(=O)(OCC1CC1=Cn1cnc2c(N)nc(N)nc21)Oc1ccccc1 (some centres unmarked) [3 (B = 2,6-diaminopurine), Example 15]", "relationSymbol": "<", "pIC50": 4.00}
{"compound": "COC(=O)[C@H](C)NP(=O)(OCC1CC1=Cn1cnc2c(N)ncnc21)Oc1ccccc1 (some centres unmarked) [3 (B = adenine), Example 13]", "relationSymbol": "=", "pIC50": 5.60}
